Biological target: bovine trypsin (Bos taurus, UniProt P00760)
Sequence (P00760 24-246): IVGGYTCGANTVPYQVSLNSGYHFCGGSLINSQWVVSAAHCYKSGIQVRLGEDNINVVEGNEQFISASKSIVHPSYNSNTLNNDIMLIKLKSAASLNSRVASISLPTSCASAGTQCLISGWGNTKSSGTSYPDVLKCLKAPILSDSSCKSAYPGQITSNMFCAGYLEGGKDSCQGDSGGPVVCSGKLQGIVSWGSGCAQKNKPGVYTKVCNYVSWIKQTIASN
Experiment: Trypsin inhibitory activity of peptides (BApNA hydrolysis, OD405; IC50, Ki, residual activity)
Assay type: biochemical
Conditions: Ki=IC50/(1+S/Km), Km 0.33 mM; read-out: Ki
Bridge positions count the residues as written; N and C are the ends. Square brackets hold non-standard residues; d marks the D form. Peptide text beside a SMILES is read from it. Nle = CCCC[C@H](N)C(=O)O
property name: Ki

compound	measured value
CCCC[C@@H]1NC(=O)[C@H](CO)NC(=O)[C@H](CCCCN)NC(=O)[C@H]([C@@H](C)O)NC(=O)[C@H](C)NC(=O)[C@H](CCCNC(=N)N)NC(=O)CNC(=O)[C@@H](N)CSSC[C@@H](C(=O)N[C@@H](Cc2ccccc2)C(=O)O)NC(=O)[C@H]([C@@H](C)CC)NC(=O)[C@@H]2CCCN2C(=O)[C@@H]2CCCN2C1=O [BT28] (H-CGRATKS[Nle]PPICF-OH; disulfide 1-12; C-terminus assumed)	60 nM
CC[C@H](C)[C@@H]1NC(=O)[C@@H]2CCCN2C(=O)[C@@H]2CCCN2C(=O)[C@H]([C@@H](C)CC)NC(=O)[C@H](CO)NC(=O)[C@H](CCCCN)NC(=O)[C@H]([C@@H](C)O)NC(=O)[C@H](C)NC(=O)[C@H](CCCNC(=N)N)NC(=O)[C@H](C(C)C)NC(=O)[C@@H](N)CSSC[C@@H](C(=O)N[C@@H](Cc2ccccc2)C(=O)O)NC1=O [BT71] (H-CVRATKSIPPICF-OH; disulfide 1-12; N-terminus and C-terminus assumed)	20 nM
CC[C@H](C)[C@@H]1NC(=O)[C@H](C)NC(=O)[C@@H]2CCCN2C(=O)[C@H](CC(C)C)NC(=O)[C@H](CO)NC(=O)[C@H](CCCCN)NC(=O)[C@H]([C@@H](C)O)NC(=O)[C@H](C)NC(=O)[C@H](CCCNC(=N)N)NC(=O)CNC(=O)[C@@H](N)CSSC[C@@H](C(=O)N[C@@H](Cc2ccccc2)C(=O)O)NC1=O [BT16] (H-CGRATKSLPAICF-OH; disulfide 1-12; C-terminus assumed)	190 nM
CC[C@H](C)[C@@H]1NC(=O)[C@H](CO)NC(=O)[C@H](CCCNC(=N)N)NC(=O)[C@H]([C@@H](C)O)NC(=O)[C@@H](NC(=O)[C@@H](N)CCCNC(=N)N)CSSC[C@@H](C(=O)N[C@@H](Cc2c[nH]c3ccccc23)C(=O)O)NC(=O)[C@H](Cc2c[nH]cn2)NC(=O)[C@@H]2CCCN2C(=O)[C@@H]2CCCN2C1=O [BT61] (H-RCTRSIPPHCW-OH; disulfide 2-10; N-terminus and C-terminus assumed)	190 nM
CC[C@H](C)[C@@H]1NC(=O)[C@@H]2CCCN2C(=O)[C@@H]2CCCN2C(=O)[C@H]([C@@H](C)CC)NC(=O)[C@H](CO)NC(=O)[C@H](CCCCN)NC(=O)[C@H]([C@@H](C)O)NC(=O)[C@H](CCC(N)=O)NC(=O)[C@H](CCCNC(=N)N)NC(=O)CNC(=O)[C@@H](N)CSSC[C@@H](C(=O)N[C@@H](Cc2ccccc2)C(=O)O)NC1=O [BT54] (H-CGRQTKSIPPICF-OH; disulfide 1-12; C-terminus assumed)	10 nM
CC[C@H](C)[C@@H]1NC(=O)[C@@H]2CCCN2C(=O)[C@@H]2CCCN2C(=O)[C@H]([C@@H](C)CC)NC(=O)[C@H](CO)NC(=O)[C@H](CCCCN)NC(=O)[C@H]([C@@H](C)O)NC(=O)[C@H](C)NC(=O)[C@H](CCCNC(=N)N)NC(=O)[C@@H]2CCCN2C(=O)[C@@H](N)CSSC[C@@H](C(=O)N[C@@H](Cc2ccccc2)C(=O)O)NC1=O [BT66] (H-CPRATKSIPPICF-OH; disulfide 1-12; C-terminus assumed)	10 nM
CC[C@H](C)[C@@H]1NC(=O)[C@@H]2CCCN2C(=O)[C@@H]2CCCN2C(=O)[C@H]([C@@H](C)CC)NC(=O)[C@H](CO)NC(=O)[C@H](CCCCN)NC(=O)[C@H]([C@@H](C)O)NC(=O)[C@H](CCC(=O)O)NC(=O)[C@H](CCCNC(=N)N)NC(=O)CNC(=O)[C@@H](N)CSSC[C@@H](C(=O)N[C@@H](Cc2ccccc2)C(=O)O)NC1=O [BT58] (H-CGRETKSIPPICF-OH; disulfide 1-12; N-terminus and C-terminus assumed)	30 nM
CC[C@H](C)[C@@H]1NC(=O)[C@@H]2CCCN2C(=O)[C@@H]2CCCN2C(=O)[C@H]([C@@H](C)CC)NC(=O)[C@H](CO)NC(=O)[C@H](CCCCN)NC(=O)[C@H]([C@@H](C)O)NC(=O)[C@H](C(C)C)NC(=O)[C@H](CCCNC(=N)N)NC(=O)CNC(=O)[C@@H](N)CSSC[C@@H](C(=O)N[C@@H](Cc2ccccc2)C(=O)O)NC1=O [BT51] (H-CGRVTKSIPPICF-OH; disulfide 1-12)	90 nM
CC[C@H](C)[C@@H]1NC(=O)[C@@H](N)CSSC[C@@H](C(=O)N[C@@H](Cc2ccccc2)C(=O)O)NC(=O)[C@H]([C@@H](C)CC)NC(=O)[C@@H]2CCCN2C(=O)[C@@H]2CCCN2C(=O)[C@H]([C@@H](C)CC)NC(=O)[C@H](CO)NC(=O)[C@H](CCCCN)NC(=O)[C@H]([C@@H](C)O)NC(=O)[C@H](C)NC(=O)[C@H](CCCNC(=N)N)NC1=O [BT73] (H-CIRATKSIPPICF-OH; disulfide 1-12; N-terminus and C-terminus assumed)	30 nM
